Sourced from the supplement of paper PMC12667976

B1: library; numbered along this chain (parent)
chain: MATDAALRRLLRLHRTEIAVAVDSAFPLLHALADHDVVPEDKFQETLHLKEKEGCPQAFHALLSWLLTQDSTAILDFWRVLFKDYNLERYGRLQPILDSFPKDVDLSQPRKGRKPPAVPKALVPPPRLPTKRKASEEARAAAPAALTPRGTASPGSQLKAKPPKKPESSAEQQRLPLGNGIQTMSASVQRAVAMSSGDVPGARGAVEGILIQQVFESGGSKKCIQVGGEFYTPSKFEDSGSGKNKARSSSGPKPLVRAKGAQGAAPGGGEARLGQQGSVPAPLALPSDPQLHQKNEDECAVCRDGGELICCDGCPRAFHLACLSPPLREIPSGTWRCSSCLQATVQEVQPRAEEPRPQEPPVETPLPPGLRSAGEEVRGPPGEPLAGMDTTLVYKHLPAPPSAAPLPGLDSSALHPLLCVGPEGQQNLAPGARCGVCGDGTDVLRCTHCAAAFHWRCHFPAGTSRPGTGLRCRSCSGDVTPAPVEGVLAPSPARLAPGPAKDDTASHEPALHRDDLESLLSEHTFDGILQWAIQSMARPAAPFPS

variants of: B1; experiment: AIRE transcriptional activation functional score (insulin promoter-GFP; nonsense median 0, synonymous median 1) (normalised score); higher = higher AIRE activity (more reporter activation); conditions: with insulin promoter-GFP reporter in HEK293
Mark Y for reported AIRE transcriptional activation functional score of 0.6 or greater; mark N for anything smaller.

Would you please look over these solved cases?
{"mutation-notation": "Q57H", "category": "N"}
{"mutation-notation": "C449E", "category": "N"}
{"mutation-notation": "R336T", "category": "Y"}
{"mutation-notation": "C446K", "category": "N"}
{"mutation-notation": "T504V", "category": "N"}
{"mutation-notation": "K159P", "category": "N"}
{"mutation-notation": "A138Q", "category": "N"}
{"mutation-notation": "L10A", "category": "N"}

Can K102L be said to have AIRE transcriptional activation functional score at or above 0.6?
Y

Can A170Q be said to have AIRE transcriptional activation functional score at or above 0.6?
N

Can G374K be said to have AIRE transcriptional activation functional score at or above 0.6?
N

Can E383K be said to have AIRE transcriptional activation functional score at or above 0.6?
N

Can G208M be said to have AIRE transcriptional activation functional score at or above 0.6?
N

Can C314T be said to have AIRE transcriptional activation functional score at or above 0.6?
Y

Can P509K be said to have AIRE transcriptional activation functional score at or above 0.6?
N

Can E307A be said to have AIRE transcriptional activation functional score at or above 0.6?
Y

Can C434Q be said to have AIRE transcriptional activation functional score at or above 0.6?
N

Can G267L be said to have AIRE transcriptional activation functional score at or above 0.6?
Y

Can E359C be said to have AIRE transcriptional activation functional score at or above 0.6?
Y
